- system.name: Oxytocin receptor (Homo sapiens) (UniProt P30559)
- Sequence (P30559 whole entry, looked up): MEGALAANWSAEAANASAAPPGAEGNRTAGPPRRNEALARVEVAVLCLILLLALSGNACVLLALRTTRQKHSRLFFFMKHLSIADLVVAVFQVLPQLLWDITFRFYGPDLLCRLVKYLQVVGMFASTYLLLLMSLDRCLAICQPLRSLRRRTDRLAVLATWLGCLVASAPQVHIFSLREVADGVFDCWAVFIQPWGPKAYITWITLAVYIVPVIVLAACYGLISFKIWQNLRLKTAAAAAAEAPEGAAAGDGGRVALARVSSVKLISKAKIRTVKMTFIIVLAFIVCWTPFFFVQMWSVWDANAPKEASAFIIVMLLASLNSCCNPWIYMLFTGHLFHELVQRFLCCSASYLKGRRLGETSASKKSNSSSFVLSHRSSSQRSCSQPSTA
- assay.text: oxytocin receptor activation by calcium flux – fluorescence, CHO-OTR cells, Fluo-8 calcium, primary screen (AID 2435);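 further: peak over basal fluorescence ratio from a 100 s FLIPR kinetic read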
- run.parameters: Fluo-8 calcium fluorescence, at 3 µM, normalized: DMSO 0%, oxytocin 100%
In all, about 320,000 compounds went through this assay and about 1,000 (0.31%) were called active.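 How the source made its calls: active means activation above the mean of all tested compounds plus 3 SD, cutoff set per screening run (cut at about 20% in these data); inactive means the rest.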 Shown is part of a subset that was picked to be rich in actives.
Answer with one of the outcomes given here: active, inactive

Query: recorded result category for CC1(C)CC[C@]2(C(=O)O)CC[C@]3(C)C(=CCC4[C@@]5(C)CC[C@H](O)C(C)(C)C5[C@H](O)C[C@]43C)[C@@H]2C1 (some centres undefined) in this test
inactive

What is the recorded call for this compound in the test? COc1ccc(OC)c(NC(=S)N2CCc3ccccc3C2)c1
inactive

For this compound, state the assay outcome: CC1(C)C2CC[C@]3(C)C(CC=C4[C@@H]5C[C@@](C)(CO)CC[C@]5(C(=O)O)CC[C@]43C)[C@@]2(C)CC[C@@H]1O (some centres undefined)
inactive

I would be grateful if you could indicate the recorded call for COc1cc(C(F)(F)F)c(C(=O)N(C)c2ccc(Cl)cc2)cn1 .
inactive

Given CCN(Cc1ccccc1)C(=O)CSc1nc(C)cc2c1C(=O)OC2 , state the outcome it received in this test.
inactive

What call does the record list for O=C(c1cccnc1)N1CCN(S(=O)(=O)c2cccs2)CC1 ?
inactive
